Entries and their measured cell viability follow.
System: Vero E6
testProtocol: cell viability relative to DMSO; higher = less toxic
testConditions: 72 h; 1000 nM
# number only, unit % dropped from output

GET cell viability where system = Vero E6 and item = CN(c1ncccc1CNc1nc(Nc2ccc3c(c2)CC(=O)N3)ncc1C(F)(F)F)S(C)(=O)=O 83.9

----------
Test system: U2OS
testProtocol: cell viability relative to DMSO; higher = less toxic
testConditions: 72 h; 1000 nM
measuredParameter: cell viability (%)
Write it as a number; the unit % goes unstated.

Example entries begin here.
compound | measuredParameter | unit | obsValue
CO[C@@H]1COCC[C@@H]1N[C@@H]1CC[C@@](C(=O)N2CCc3ncc(C(F)(F)F)cc3C2)(C(C)C)C1 | cell viability | % | 106
CC1(C)CCC(C)(C)c2cc(C#Cc3ccc(C(=O)O)cc3)ccc21 | cell viability | % | 95.7
CCCCC/C=C\C=C\CCCCCCCCC(=O)O [trans-10,cis-12-conjugated-linoleic-acid] | cell viability | % | 97.4

Return reported cell viability. Input compound: CCCC(=O)O[C@]1(C(=O)CCl)[C@@H](C)C[C@H]2[C@@H]3CCC4=CC(=O)C=C[C@]4(C)[C@@]3(F)C(=O)C[C@@]21C [clobetasone-butyrate] 95

Look up and report measured cell viability for this entry: CC/C(=C(/c1ccc(OCCN(C)C)cc1)c1cccc(O)c1)c1ccccc1 96

Supply measured cell viability of CNC(=O)ON(C(C)=O)C(=O)NC [caracemide] in your reply. 103

Specify cell viability for O=c1cc(N2CCOCC2)nc2c3ccccc3ccn12 and stop. 101

Look up and state reported cell viability for CCOC(=O)[C@H](CCc1ccccc1)N[C@@H](C)C(=O)N1CCC[C@H]1C(=O)O 98.6

Name the recorded cell viability of the compound listed here: O=C(O)C(Cc1ccccc1[N+](=O)[O-])=NNc1nc(-c2ccc(Cl)c(Cl)c2)cs1 93.7

Please list cell viability recorded for the compound CN1CCC(CNc2ccc3ncc(-c4cccc(OC(F)(F)F)c4)n3n2)CC1 92.1

Provide one value: measured cell viability of COc1ccc(C(=O)Nc2sc3c(c2C(N)=O)CCCC3)cc1OC 98.4

For C#Cc1cnc2nc(O)n(C(CC)CC)c2n1 , write its cell viability. 98.6

Given the compound N[C@@H](C(=O)O)c1cc(O)cc(O)c1 [dihydroxyphenylglycine] , write its reported cell viability. 98.8

Complete the entry with cell viability for CC(C)NCC(O)COc1ccc(COCCOC(C)C)cc1 (stereo not drawn) 95

Look up and state reported cell viability for O=C(Nc1cc(-c2ccccc2)nn1-c1ccccc1)c1ccc([N+](=O)[O-])cc1 99

Supply recorded cell viability for O=C1CC2(CCCC2)CC(=O)N1CCCCNC[C@H]1COc2ccccc2O1 (racemic) here. 104

Read off the recorded cell viability for CC(=O)Nc1ccc(Cc2ccc(NC(C)=O)cc2)cc1 104

Give reported cell viability value for CC1(C)[C@@H]2C[C@@H](O)[C@@](C)(O)[C@H]1C2 [2,3-cis/exo-pinanediol] 100

----------
# key: entry, value: cell viability
Test system: Caco-2
testProtocol: cell viability relative to DMSO; higher = less toxic
testConditions: 72 h; 1 nM
# number only, unit % dropped from output

compound | measuredParameter | unit | obsValue
O=S(=O)(N[C@H]1CC[C@@](c2cc(F)ccc2F)(S(=O)(=O)c2ccc(Cl)cc2)CC1)C(F)(F)F | cell viability | % | 88.8
O=C(NN1C(=O)[C@@H]2[C@@H]3C=C[C@@H]([C@H]4C[C@@H]34)[C@@H]2C1=O)c1ccc(C(F)(F)F)cc1 | cell viability | % | 109
CCOc1ccc(-n2c([C@@H](C)N(Cc3cccnc3)C(=O)Cc3ccc(F)c(C(F)(F)F)c3)nc3ncccc3c2=O)cc1 (racemic) | cell viability | % | 103

For the compound Cc1cccc(NC(=O)c2ccc(C(F)(F)F)cc2C(=O)O)n1 , give its reported cell viability. 99.5

Fill in reported cell viability for this entry: CCCC(C)C1(CC)C(=O)NC(=O)NC1=O (stereo not drawn) 94.8

Annotate the compound CCCCC[C@H](O)/C=C/[C@H]1[C@H](O)CC(=O)[C@@H]1CCCCCCC(=O)O with its measured cell viability. 96.8

Identify cell viability associated with the compound CC[C@H](CC#N)OC(=O)N[C@@H](C)c1cccc(NC(=O)Nc2ccc(-c3cnco3)c(OC)c2)c1 102

Please look at this compound and report its cell viability: O=C1CC2(CCCC2)CC(=O)N1CCCCNC[C@H]1COc2ccccc2O1 (racemic) 97.8
